Target: T1, GFP-9S library array, motif 4 ND N98Y;D124E (synthetic construct, N98Y;D124E)
T1 chain: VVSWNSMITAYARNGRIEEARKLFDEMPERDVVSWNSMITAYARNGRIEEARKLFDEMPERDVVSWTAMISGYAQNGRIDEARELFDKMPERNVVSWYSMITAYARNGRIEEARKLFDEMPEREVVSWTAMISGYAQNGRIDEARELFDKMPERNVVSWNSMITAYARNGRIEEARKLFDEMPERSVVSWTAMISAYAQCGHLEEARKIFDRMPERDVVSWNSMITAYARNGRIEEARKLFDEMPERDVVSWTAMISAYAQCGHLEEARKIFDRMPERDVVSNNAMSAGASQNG
Experiment: high-throughput RNA pulldown from lysate on Ni-NTA beads; HRP: 50 mM Tris pH 8, 150 mM NaCl, 1 mM beta-mercaptoethanol, 50 ug/ml BSA, 3 ug/ml yeast RNA, 0.5% heparin; ITC and FP: Tris pH 8, 200 mM KCl, 5% glycerol; MST: 50 mM Tris pH 8, 200 mM NaCl, 1 mM DTT, BSA, heparin, 0.05% Tween 20
Conditions: tags: N-terminal His-eGFP; label: 5' IRDye 800CW
The entries below come with measured pKd values attached.
// pKd here means minus log10 of the molar concentration (mol/L)

{"Binder": "AUUAUACGUGA (ssRNA) [IR-rpoA-U]", "pKd": 6.54}

# context switch: different binder, same pKd
// recorded pKd for AUUAAACGUGA (ssRNA) [IR-rpoA-A] : 6.31
